Record form. Attribute: viability, T/C. Fill in for each entry.
# Test system: MDA-MB-468 spheroids with HUVEC/MSC, viability
# procedure-summary: Anticancer human tumor MDA-MB-468 cell line growth inhibition [PI3K];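 further: spheroids exposed to agents for seven days before readout; 100% = DMSO vehicle control viability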
# stated-conditions: second compound 3.16 µM; first compound 0.316 µM; hits give low values
Give bare numbers, in %.

// worked examples, viability, T/C included
compound: CC1(C)CCC(Nc2ncc(C(F)(F)F)c(-c3c[nH]c4c(P(C)(C)=O)c(C#N)ccc34)n2)CN1 (centres undefined) + CC(Nc1ncnc2nc[nH]c12)c1cc2cccc(Cl)c2c(=O)n1-c1ccccc1
target: MDA-MB-468 spheroids with HUVEC/MSC, viability
viability, T/C / %: 11.1

compound: CC1(C)CCC(Nc2ncc(C(F)(F)F)c(-c3c[nH]c4c(P(C)(C)=O)c(C#N)ccc34)n2)CN1 (centres undefined) + Cc1nc(NC(=O)N2CCCC2C(N)=O)sc1-c1ccnc(C(C)(C)C(F)(F)F)c1
target: MDA-MB-468 spheroids with HUVEC/MSC, viability
viability, T/C / %: 9.84

compound: C[C@@H](NC(=O)c1ncnc(N)c1Cl)c1ncc(C(=O)Nc2cc(C(F)(F)F)c(Cl)cn2)s1 + CC(Nc1ncnc2nc[nH]c12)c1cc2cccc(Cl)c2c(=O)n1-c1ccccc1
target: MDA-MB-468 spheroids with HUVEC/MSC, viability
viability, T/C / %: 63.7

Note: attention shifts to another entry.
Query :: What does the data say about its viability, T/C? Entry: Cn1ncc(Cl)c1-c1cc(C(=O)NC(CN)Cc2cccc(F)c2)sc1Cl (centres undefined) + CC(Nc1ncnc2nc[nH]c12)c1cc2cccc(Cl)c2c(=O)n1-c1ccccc1
Result :: 40.8
